Tested on: Escherichia coli TOP10
experimentNotes: shrunken log2 fold change of peptide-encoding DNA abundance (4.5 h post-induction vs induction); higher = less antimicrobial activity (less host growth inhibition)
assaySetup: time post-induction: 4.5 h; library: site-saturation at positions 5, 18, 19, 20
Label rule, in plain words: shrunken log2 fold change of 0.09 and up is Met, under 0.09 is Not met.

Tell me whether shrunken log2 fold change is at least 0.09 here: `RRIRERPPRLPRPRPRPELWPRP` Met

Does the reported shrunken log2 fold change for `RRIRHRPPRLPRPRPRPIWCPRP` fall at or above the 0.09 mark? Not met

State whether the measured shrunken log2 fold change reaches 0.09, counting equality as reaching it, for `RRIRRRPPRLPRPRPRPPFDPRP` Met

Is the recorded value of shrunken log2 fold change equal to or greater than 0.09 for this sequence? `RRIRNRPPRLPRPRPRPQLMPRP` Not met

Identify whether the reported shrunken log2 fold change of the following sequence is 0.09 or greater: `RRIRDRPPRLPRPRPRPFRWPRP` Met

# bool: shrunken log2 fold change of `RRIRIRPPRLPRPRPRPNWFPRP` >= 0.09 Not met

State whether the measured shrunken log2 fold change reaches 0.09, counting equality as reaching it, for `RRIRMRPPRLPRPRPRPNPAPRP` Met

For this sequence, is measured shrunken log2 fold change 0.09 or higher? `RRIRERPPRLPRPRPRPDGIPRP` Not met

Record `RRIRNRPPRLPRPRPRPMRLPRP` ; criterion: shrunken log2 fold change no lower than 0.09. Met? Met

Hi team, for `RRIRRRPPRLPRPRPRPAHYPRP` , is the recorded shrunken log2 fold change at or above 0.09? Met

For this sequence, is measured shrunken log2 fold change 0.09 or higher? `RRIRDRPPRLPRPRPRPLWFPRP` Not met

Could you tell me if the measured shrunken log2 fold change of `RRIRFRPPRLPRPRPRPDLWPRP` reaches 0.09 or more? Met

Determine whether this sequence has shrunken log2 fold change no lower than 0.09: `RRIRTRPPRLPRPRPRPEDKPRP` Not met

Decide: shrunken log2 fold change of `RRIRFRPPRLPRPRPRPSHSPRP` >= 0.09? Not met

Has `RRIRFRPPRLPRPRPRPLHVPRP` a recorded shrunken log2 fold change greater than or equal to 0.09? Not met

Given `RRIRHRPPRLPRPRPRPLSQPRP` , state whether its shrunken log2 fold change is at least 0.09. Not met

For this sequence, is measured shrunken log2 fold change 0.09 or higher? `RRIRWRPPRLPRPRPRPSCQPRP` Met

hey, is shrunken log2 fold change for this one >= 0.09? `RRIRERPPRLPRPRPRPHTMPRP` Not met

Decide: is the reported value of shrunken log2 fold change for `RRIRARPPRLPRPRPRPRADPRP` equal to or greater than 0.09? Met

Is it the case that `RRIRHRPPRLPRPRPRPKVFPRP` has shrunken log2 fold change reaching or exceeding 0.09? Not met

Test whether the sequence `RRIRKRPPRLPRPRPRPNKKPRP` records shrunken log2 fold change of 0.09 or higher. Not met

Hello, I need to know if `RRIRQRPPRLPRPRPRPYRHPRP` has measured shrunken log2 fold change not below 0.09. Thanks! Not met

Reported shrunken log2 fold change at or above 0.09? `RRIRVRPPRLPRPRPRPRTFPRP` Not met

Determine whether measured shrunken log2 fold change meets or exceeds 0.09 for `RRIRKRPPRLPRPRPRPKENPRP` Met

Check this sequence for shrunken log2 fold change at or above 0.09: `RRIRLRPPRLPRPRPRPNKGPRP` Not met

Determine whether measured shrunken log2 fold change meets or exceeds 0.09 for `RRIRTRPPRLPRPRPRPTNAPRP` Met

shrunken log2 fold change >= 0.09 for `RRIRLRPPRLPRPRPRPSTLPRP` ? Not met

Identify whether the reported shrunken log2 fold change of the following sequence is 0.09 or greater: `RRIRVRPPRLPRPRPRPNFRPRP` Met

Say whether `RRIRARPPRLPRPRPRPDVLPRP` shows shrunken log2 fold change of 0.09 or more. Met

Does the sequence `RRIRNRPPRLPRPRPRPWDTPRP` have recorded shrunken log2 fold change that is 0.09 or more? Not met

shrunken log2 fold change >= 0.09 for `RRIRMRPPRLPRPRPRPFCVPRP` ? Not met

shrunken log2 fold change >= 0.09 for `RRIRWRPPRLPRPRPRPIAHPRP` ? Not met

shrunken log2 fold change >= 0.09 for `RRIRGRPPRLPRPRPRPDCSPRP` ? Met

In plain terms: is recorded shrunken log2 fold change at least 0.09 for `RRIRMRPPRLPRPRPRPAVDPRP` ? Met

Is shrunken log2 fold change for `RRIRQRPPRLPRPRPRPHDEPRP` at or above 0.09? Not met

Decide: is the reported value of shrunken log2 fold change for `RRIRQRPPRLPRPRPRPYSRPRP` equal to or greater than 0.09? Not met

Does the sequence `RRIRARPPRLPRPRPRPNCDPRP` have recorded shrunken log2 fold change that is 0.09 or more? Met

Has `RRIRGRPPRLPRPRPRPFPNPRP` a recorded shrunken log2 fold change greater than or equal to 0.09? Met

Is shrunken log2 fold change for `RRIRFRPPRLPRPRPRPTLEPRP` at or above 0.09? Met

Item `RRIRLRPPRLPRPRPRPTLQPRP` with shrunken log2 fold change of 0.09 or above? Not met

###

Kindly state shrunken log2 fold change for each of the entries shown.
Tested on: Escherichia coli TOP10;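 further: peptides expressed intracellularly from a pBAD plasmid library in pooled LB shake-flask culture, induced with 0.3% L-arabinose, DNA abundance read by NGS, three biological replicates, DESeq2 with apeglm shrinkage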
experimentNotes: shrunken log2 fold change of peptide-encoding DNA abundance (4.5 h post-induction vs induction); higher = less antimicrobial activity (less host growth inhibition)
assaySetup: time post-induction: 4.5 h; library: site-saturation at positions 5, 18, 19, 20
API doc: respond with a numeric literal and nothing else, no unit.

Item `RRIRKRPPRLPRPRPRPETDPRP` has what recorded shrunken log2 fold change? 0.0366

Quick one: shrunken log2 fold change for `RRIRFRPPRLPRPRPRPQPYPRP` ? -0.34

Which shrunken log2 fold change value belongs to `RRIRCRPPRLPRPRPRPSRCPRP` ? 0.137

Data request, read-out shrunken log2 fold change, for `RRIRWRPPRLPRPRPRPIPGPRP` 0.0313

Quick check: shrunken log2 fold change of `RRIRSRPPRLPRPRPRPHGGPRP` ? 0.103

What value of shrunken log2 fold change has been recorded for this entry: `RRIRDRPPRLPRPRPRPTRHPRP` 0.42

Value lookup for shrunken log2 fold change; key = `RRIRIRPPRLPRPRPRPMEWPRP` -0.00133

Reported shrunken log2 fold change for `RRIRNRPPRLPRPRPRPRVCPRP` : what is it? 0.205

State the recorded shrunken log2 fold change for this entry: `RRIRERPPRLPRPRPRPPCLPRP` -0.579

Query (sequence): `RRIRCRPPRLPRPRPRPWNDPRP` ; field requested: shrunken log2 fold change 0.00383

Request the reported shrunken log2 fold change associated with `RRIRYRPPRLPRPRPRPEYRPRP` -0.00979

Could you tell me which shrunken log2 fold change is on file for `RRIRTRPPRLPRPRPRPLANPRP` ? -0.105

Give its shrunken log2 fold change value. Item: `RRIRERPPRLPRPRPRPVRRPRP` -0.172

Look up shrunken log2 fold change for this sequence: `RRIRGRPPRLPRPRPRPWKLPRP` 0.0361

Item `RRIRNRPPRLPRPRPRPKYVPRP` has what recorded shrunken log2 fold change? -0.00968

Consider the sequence `RRIRARPPRLPRPRPRPSRYPRP` and give its measured shrunken log2 fold change. 0.0768

Value lookup for shrunken log2 fold change; key = `RRIRYRPPRLPRPRPRPLCDPRP` -0.12

Param item = `RRIRWRPPRLPRPRPRPPAAPRP` ; retrieve measured shrunken log2 fold change. 0.913

Consider the sequence `RRIRQRPPRLPRPRPRPLWWPRP` and give its measured shrunken log2 fold change. 0.121

Name the recorded shrunken log2 fold change for `RRIRIRPPRLPRPRPRPCISPRP` . -0.32

// returns reported shrunken log2 fold change for input `RRIRPRPPRLPRPRPRPALVPRP` 0.181

Item `RRIRFRPPRLPRPRPRPYYTPRP` has what recorded shrunken log2 fold change? -0.369

Recorded shrunken log2 fold change of `RRIRYRPPRLPRPRPRPNRCPRP` , please. 0.00786

What value of shrunken log2 fold change has been recorded for this entry: `RRIRRRPPRLPRPRPRPKPYPRP` -0.033

Which shrunken log2 fold change reading was recorded for the sequence `RRIRARPPRLPRPRPRPHFWPRP` ? 0.23

What value of measured shrunken log2 fold change is listed for `RRIRPRPPRLPRPRPRPNPCPRP` ? -0.165

Look up shrunken log2 fold change for this sequence: `RRIRIRPPRLPRPRPRPYQEPRP` 0.0173

Would you kindly share the measured shrunken log2 fold change for `RRIRPRPPRLPRPRPRPDWMPRP` ? -0.212

// shrunken log2 fold change lookup, key: `RRIRARPPRLPRPRPRPFSSPRP` -0.159

What value of measured shrunken log2 fold change is listed for `RRIRPRPPRLPRPRPRPAEVPRP` ? -0.0315

// lookup shrunken log2 fold change for `RRIRPRPPRLPRPRPRPWCAPRP` 0.208

# get_value(readout='shrunken log2 fold change', item= `RRIRHRPPRLPRPRPRPMHAPRP` ) -9.3e-05

What does the data say about its shrunken log2 fold change? Entry: `RRIRPRPPRLPRPRPRPANHPRP` -0.0982

I would be grateful if you could share the reported shrunken log2 fold change for `RRIRTRPPRLPRPRPRPSCNPRP` . -0.768
